# system.under.test: ERα (Homo sapiens)
# Sequence (P03372 1-595): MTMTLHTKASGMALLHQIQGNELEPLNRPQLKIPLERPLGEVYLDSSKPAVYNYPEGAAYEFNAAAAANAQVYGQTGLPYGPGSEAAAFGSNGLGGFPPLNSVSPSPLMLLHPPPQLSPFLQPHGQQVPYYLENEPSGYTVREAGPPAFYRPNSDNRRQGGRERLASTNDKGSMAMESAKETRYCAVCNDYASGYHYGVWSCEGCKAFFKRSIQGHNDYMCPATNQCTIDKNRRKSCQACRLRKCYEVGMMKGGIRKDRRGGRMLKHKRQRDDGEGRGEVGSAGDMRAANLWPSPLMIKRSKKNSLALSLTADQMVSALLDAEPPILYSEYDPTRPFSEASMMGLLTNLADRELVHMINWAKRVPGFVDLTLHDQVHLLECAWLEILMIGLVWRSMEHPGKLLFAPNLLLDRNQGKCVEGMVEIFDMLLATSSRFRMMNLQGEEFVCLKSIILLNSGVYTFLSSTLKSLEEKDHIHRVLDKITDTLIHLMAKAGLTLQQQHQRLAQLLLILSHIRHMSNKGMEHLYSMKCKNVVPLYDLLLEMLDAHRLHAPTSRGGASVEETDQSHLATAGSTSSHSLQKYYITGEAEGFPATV
# test.summary: Degradation of ERα in MCF-7 cells (immunoblotting, 4 h)
# Assay type: cell-based
# setup.conditions: 1nM compound
# Procedure: MCF-7 cells were inoculated into 6-well plates at a density of 3×10^5 cells/well and cultured at 37°C, 5% CO2 for 24h. […] Protein immunoblotting: The total protein concentration in the collected cell lysate supernatant was determined by BCA Protein Concentration Assay Kit (Enhanced) (P0009, Beyotime). […] Protein profiles were analyzed by Image Studio Lite analysis software for grayscale values. […]
observed.property: Degradation rate (%) of ERα in MCF-7 cells
Response body: numeric value in %, unit text excluded.

# annotated cases, reported Degradation rate (%) of ERα in MCF-7 cells shown
Entry under review: O=C1CCC(N2Cc3c(ccc4c3OCC43CCN(C4CCN(C5CCN(c6ccc(C7c8ccc(O)cc8CCC7c7ccccc7)cc6)CC5)CC4F)CC3)C2=O)C(=O)N1 (stereo not drawn) [G13] . Reported Degradation rate (%) of ERα in MCF-7 cells?
30

Entry under review: C[C@@H]1Cc2c([nH]c3ccccc23)[C@@H](c2c(F)cc(N3CCC4(CCC(N5CCC6(CC5)COc5c6ccc6c5CN(C5CCC(=O)NC5=O)C6=O)CC4)CC3)cc2F)N1CC(F)F (stereo partly drawn) [A103] . Reported Degradation rate (%) of ERα in MCF-7 cells?
37

Entry under review: O=C1CCC(N2Cc3c(ccc4c3OCC43CCN(CC(=O)N4CCC(OC5CCN(c6ccc([C@@H]7c8ccc(O)cc8CC[C@@H]7c7ccccc7)cc6)CC5)CC4)CC3)C2=O)C(=O)N1 (stereo partly drawn) [K46] . Reported Degradation rate (%) of ERα in MCF-7 cells?
54

Entry under review: CN(CC(=O)N1CC2(CCc3cc4c(cc3O2)C(=O)N(C2CCC(=O)NC2=O)C4)C1)C1CCC2(CC1)CN(c1ccc([C@@H]3c4ccc(O)cc4CC[C@@H]3c3ccccc3)cc1)C2 (stereo partly drawn) [C18] . Reported Degradation rate (%) of ERα in MCF-7 cells?
10

***
Entry under review: O=C1CCC(N2Cc3cc4c(cc3C2=O)OC2(CC4)CN(CC3CCN(c4ccc([C@@H]5c6ccc(O)cc6CC[C@@H]5c5ccccc5)cc4)CC3)C2)C(=O)N1 (stereo partly drawn) [H3] . Reported Degradation rate (%) of ERα in MCF-7 cells?
-20

Entry under review: O=C1CCC(N2Cc3c(ccc4c3OC3(CC4)CCN(C(=O)CN4CCC5(CC4)CCN(c4ccc([C@@H]6c7ccc(O)cc7CC[C@@H]6c6ccccc6)cc4)CC5)CC3)C2=O)C(=O)N1 (stereo partly drawn) [A65] . Reported Degradation rate (%) of ERα in MCF-7 cells?
23

Entry under review: O=C1CCC(N2Cc3ccc4c(c3C2=O)OCC2(CCN(CC3CCN(c5ccc([C@@H]6c7ccc(O)cc7CC[C@@H]6c6ccccc6)cc5)CC3)CC2)C4)C(=O)N1 (stereo partly drawn) [H5] . Reported Degradation rate (%) of ERα in MCF-7 cells?
-3

Entry under review: C[C@@H]1Cc2c([nH]c3ccccc23)[C@@H](c2c(F)cc(N3CCC4(CCN(CC(=O)N5CCC6(CC5)COc5c6ccc6c5CN(C5CCC(=O)NC5=O)C6=O)CC4)CC3)cc2F)N1CC(F)F (stereo partly drawn) [A112] . Reported Degradation rate (%) of ERα in MCF-7 cells?
15

Entry under review: O=C1CCC(N2C(=O)c3cc4c(cc3C2=O)OC2(CCN(C3CCN(C5CN(c6ccc([C@@H]7c8ccc(O)cc8CC[C@@H]7c7ccccc7)cc6)C5)CC3)CC2)C4)C(=O)N1 (stereo partly drawn) [A59] . Reported Degradation rate (%) of ERα in MCF-7 cells?
11

Entry under review: O=C1CCC(N2Cc3cc4c(cc3C2=O)CCC2(CN(C3CCC5(CC3)CCN(c3ccc([C@@H]6c7ccc(O)cc7CC[C@@H]6c6ccccc6)cc3)CC5)C2)O4)C(=O)N1 (stereo partly drawn) [A33] . Reported Degradation rate (%) of ERα in MCF-7 cells?
-7

Entry under review: O=C1CCC(N2Cc3c(ccc4c3OCC43CCN(C4CCN(C(=O)C5CCC6(CC5)CCN(c5ccc([C@@H]7c8ccc(O)cc8CC[C@@H]7c7ccccc7)cc5)CC6)CC4)CC3)C2=O)C(=O)N1 (stereo partly drawn) [B18] . Reported Degradation rate (%) of ERα in MCF-7 cells?
36

Entry under review: CN(C(=O)CN1CC2(CCc3cc4c(cc3O2)CN(C2CCC(=O)NC2=O)C4=O)C1)C1CCC2(CC1)CN(c1ccc([C@@H]3c4ccc(O)cc4CC[C@@H]3c3ccccc3)cc1)C2 (stereo partly drawn) [K45] . Reported Degradation rate (%) of ERα in MCF-7 cells?
21

###

# system.under.test: ERα (Homo sapiens, UniProt P03372)
# test.summary: Degradation of ERα in T-47D cells (immunoblotting, 4 h)
# Format: cell-based
# Design: host or cells: T-47D
# setup.conditions: 10nM compound
observed.property: Degradation rate (%) of ERα in T-47D cells

Entry under review: COC(=O)[C@H]1CC(N2CCC3(CC2)COc2c3ccc3c2CN(C2CCC(=O)NC2=O)C3=O)CCN1CC1CCN(c2ccc([C@@H]3c4ccc(O)cc4CC[C@@H]3c3ccccc3)cc2)CC1 (stereo partly drawn) [J7] . Reported Degradation rate (%) of ERα in T-47D cells?
67%

Entry under review: O=C1CCC(N2Cc3cc4c(cc3C2=O)OCC2(CCN(C3CCC5(CC3)CN(c3ccc(C6c7ccc(O)cc7CCC6c6ccccc6)cc3)C5)CC2)O4)C(=O)N1 (stereo not drawn) [A27] . Reported Degradation rate (%) of ERα in T-47D cells?
-15%

***
Entry under review: O=C1CCC(N2Cc3c(ccc4c3OCC43CCN(C(=O)CN4CCC5(CCN(c6ccc([C@@H]7c8ccc(O)cc8CC[C@@H]7c7ccccc7)cc6)CC5)C4)CC3)C2=O)C(=O)N1 (stereo partly drawn) [A63] . Reported Degradation rate (%) of ERα in T-47D cells?
80%

###

# system.under.test: ERα (Homo sapiens, UniProt P03372)
# test.summary: Degradation of ERα in T-47D cells (immunoblotting, 4 h)
# Format: cell-based
# Set-up: host or cells: T-47D
# setup.conditions: 10nM compound
Recorded Degradation rate (%) of ERα in T-47D cells for the following compounds
Response body: numeric value in %, unit text excluded.

Entry under review: CC(C)(C(=O)N1CCC2(CC1)COc1c2ccc2c1CN(C1CCC(=O)NC1=O)C2=O)N1CCC2(CCN(c3ccc([C@@H]4c5ccc(O)cc5CC[C@@H]4c4ccccc4)cc3)CC2)C1 (some centres unmarked) [A91] . Reported Degradation rate (%) of ERα in T-47D cells?
49

Entry under review: C[C@@H]1Cc2c(ccc3[nH]ncc23)C(c2ccc(N3CC4(CCC(N5CCC6(CC5)COc5c6ccc6c5CN(C5CCC(=O)NC5=O)C6=O)CC4)C3)cn2)N1CC(F)(F)F (some centres unmarked) [B49] . Reported Degradation rate (%) of ERα in T-47D cells?
68

Entry under review: CN(C(=O)CN1CCC2(CC1)COc1c2ccc2c1CN(C1CCC(=O)NC1=O)C2=O)C1CCN(c2ccc([C@@H]3c4ccc(O)cc4CC[C@@H]3c3ccccc3)cc2)CC1 (some centres unmarked) [K37] . Reported Degradation rate (%) of ERα in T-47D cells?
56

Entry under review: O=C1CCC(N2Cc3c(ccc4c3OCC43CCN(C4C5CCC4CN(C(=O)C4CCN(c6ccc([C@@H]7c8ccc(O)cc8CC[C@@H]7c7ccccc7)cc6)CC4)C5)CC3)C2=O)C(=O)N1 (some centres unmarked) [J4] . Reported Degradation rate (%) of ERα in T-47D cells?
51

Next, consider the following compound.
Entry under review: O=C1CCC(N2Cc3c(ccc4c3OCC43CCN(C4CCN(C5CC6(CCN(c7ccc([C@@H]8c9ccc(O)cc9CC[C@@H]8c8ccccc8)cc7)CC6)C5)[C@@H](C(=O)NC5CC5)C4)CC3)C2=O)C(=O)N1 (some centres unmarked) [K27] . Reported Degradation rate (%) of ERα in T-47D cells?
88
